// cross-study collection: Ki for Adenosine receptor A1 (Homo sapiens, UniProt P30542)
MEASURED ATTRIBUTE: Ki

Cc1ccc2c(O)c(C(=O)NN3CCN(C)CC3)cnc2n1; > 10 µM
O=c1c(-c2ccco2)nnc2n(-c3ccccc3)c3ccc(Cl)cc3n12; > 10 µM
CNc1ncc(C(=O)O)c2nc(-c3ccco3)nn12; > 100 µM
CCCn1c(=O)c2nc(-c3ccc(OCc4nc(-c5ccccc5Cl)no4)cc3)[nH]c2n(CCC)c1=O; > 6 µM

---

Ki values for Adenosine receptor A1 (Homo sapiens), compiled from several publications.
MEASURED ATTRIBUTE: Ki (µM)

CCCn1c(=O)c2[nH]c(-c3cn[nH]c3)nc2n(CCC)c1=O; 0.02
CCCOc1cc(NC(=O)CC)nc(SCCC)n1; 1.46
CCC(=O)Nc1cc(-c2ccoc2)nc(-c2ccoc2)n1; 0.132
CCNC(=O)[C@H]1OC(n2cnc3c(NCCCCCCCCCCNc4ccc([N+](=O)[O-])c5nonc45)ncnc32)[C@H](O)[C@@H]1O (some centres undefined); 6.35
CCCCn1cc2c(nc(NC(=O)Cc3ccc(-c4ccccc4)cc3)n3nc(-c4ccco4)nc23)n1; 0.381
CN(C)C(=O)[C@H]1S[C@@H](n2cnc3c(NCc4cccc(I)c4)nc(Cl)nc32)[C@H](O)[C@@H]1O; 6.22
N#Cc1c(N)nc(SCCO)c(C#N)c1-c1ccccc1; 0.015
Nc1ncnc2c1nc(Br)n2C1CCCC1; 1
CC(=O)Nc1nc2ccccc2n2c(=O)n(-c3ccccc3)nc12; 2
CCn1nnc(-c2sc(NC(=O)Cc3ccc(OC)c(OC)c3)nc2-c2ccccc2)n1; 1.6
COc1ccccc1Cn1cc2nc(-c3ccc(C)o3)nc(N)c2n1; 0.018
Cn1c(-n2nccn2)nc2c(N)ncnc21; 0.0004
CC(C)CN1C(=O)/C(=C/c2c(NCCc3ccccc3)nc3ccccn3c2=O)SC1=S; 13.5
O=c1oc2c(O)c(O)ccc2cc1-c1cccs1; 3.23
Cc1cn2c(=O)n(-c3ccccc3)nc2c(N)n1; 0.067
CCN(C(C)=O)c1ccc(Cl)c2nc(NC(=O)c3ccc(F)cc3)sc12; 0.03
Nc1nc(-n2ccnc2)c2c3c(sc2n1)CCCC3; 10.4
CCC1CN2C(=O)N(Cc3ccccc3)c3nc(-c4cc(C)nn4C)[nH]c3C2=N1 (racemic); 0.615
CC(C)n1cc2c(Cl)nc(N(C(=O)c3ccccc3)C(=O)c3ccccc3)nc2n1; 7.9
CCCn1c(=O)c2[nH]c(-c3ccc(S(C)(=O)=O)cc3)c(O)c2n(C)c1=O; 0.24
Nc1ncnc2c1nc(Br)n2CCCO; 1

---

Please find below Ki measurements for the protein given by its sequence, combined from several publications.
Target chain: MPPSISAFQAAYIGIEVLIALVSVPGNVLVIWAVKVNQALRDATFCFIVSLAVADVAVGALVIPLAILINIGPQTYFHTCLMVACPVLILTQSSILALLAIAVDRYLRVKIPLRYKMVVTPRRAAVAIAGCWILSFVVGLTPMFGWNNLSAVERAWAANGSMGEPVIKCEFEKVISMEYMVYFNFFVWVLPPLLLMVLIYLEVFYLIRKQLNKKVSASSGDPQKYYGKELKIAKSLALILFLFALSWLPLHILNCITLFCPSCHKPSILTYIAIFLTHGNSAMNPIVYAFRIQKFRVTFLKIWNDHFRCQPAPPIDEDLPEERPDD
MEASURED ATTRIBUTE: Ki

O=C(Nc1nc(Cl)c2cn(CCc3ccccc3)nc2n1)c1ccc(C(F)(F)F)cc1; > 60000 nM
CCCn1c(=O)c2c(nc3[nH]c(C)cn32)n(Cc2cccnc2)c1=O; > 1000 nM
COC[C@@H]1CCC(C)N1c1cc(NC(C)=O)nc(-n2nc(C)cc2C)n1 (some centres undefined); 1640 nM
CCNC(=O)[C@H]1O[C@@H](n2cnc3c(NNC(=O)c4sccc4C)nc(Cl)nc32)[C@H](O)[C@@H]1O; 1600 nM
CCNC(=O)[C@H]1O[C@@H](n2cnc3c(NNC(=O)c4cccnc4)ncnc32)[C@H](O)[C@@H]1O; > 5000 nM
CCCn1c(=O)c2c(nc3n2CC(c2ccccc2)=C3)n(Cc2ccccc2)c1=O; > 1000 nM
Cc1ccc2c(NC3CCCCC3)c(Cc3ccccc3)cnc2n1; > 10000 nM
Clc1ccc2ncc3nc(-c4ccccc4)nn3c2c1; 127 nM
CCCn1c(=O)c2c(nc3ccccn32)n(C)c1=O; 2100 nM
O=[N+]([O-])c1cccc2[nH]c(-c3cnc4ccccc4n3)nc12; > 10000 nM
COc1ccc(-n2nc3c(=O)[nH]c4c([N+](=O)[O-])cccc4n3c2=O)cc1; > 10000 nM
Nc1nc2cnn(CCc3ccccc3)c2c2nc(-c3ccco3)nn12; 33 nM
Cn1cc2c(nc(NC(=O)NC3CCN(C(=O)NCc4ccccc4)CC3)n3nc(-c4ccco4)nc23)n1; 525 nM
CCN(C(C)=O)c1ccc(OC)c2nc(NC(=O)c3ccc(CN(C)S(C)(=O)=O)cc3)sc12; 410 nM
CCN[C@@H]1CCN(CC(=O)Nc2cc(-n3nc(C)cc3C)nc(-c3ccc(C)o3)n2)C1; 270 nM
N#Cc1c(-c2ccccc2)cc(N)nc1SCc1ncc[nH]1; 112 nM
COc1ccc(CCNc2nc(N)c3nc(-c4ccccc4)sc3n2)cc1; 485 nM
C[C@H](Nc1nc2nn(C)cc2c2nc(-c3ccco3)nn12)c1ccccc1; 338 nM
CN(C)C(=O)[C@H]1S[C@@H](n2cnc3c(NCC4CC4)nc(Cl)nc32)[C@H](O)[C@@H]1O; 404 nM
CN1CCN(c2nc(-c3cccc(Cl)c3)nc3[nH]cnc23)CC1; 79.4 nM
CCNC(=O)[C@H]1O[C@@H](n2cnc3c(Nc4ccc(OCC(=O)Nc5ccc(I)cc5)cc4)ncnc32)[C@H](O)[C@@H]1O; 5.2 nM
C=CCOc1ccc(-c2c(C#N)c(N)nc(SCc3ccn[nH]3)c2C#N)cc1; 44 nM
CCOC(=O)c1nc(NC(=O)c2ccccc2)nc2nn(C)cc12; 14000 nM
Cn1cc2c(nc(NC(=O)c3ccccc3)n3nc(-c4ccc([N+](=O)[O-])cc4)nc23)n1; > 30000 nM

---

- STUDY SYSTEM: Adenosine receptor A1 (Homo sapiens)
- Sequence (P30542 whole entry): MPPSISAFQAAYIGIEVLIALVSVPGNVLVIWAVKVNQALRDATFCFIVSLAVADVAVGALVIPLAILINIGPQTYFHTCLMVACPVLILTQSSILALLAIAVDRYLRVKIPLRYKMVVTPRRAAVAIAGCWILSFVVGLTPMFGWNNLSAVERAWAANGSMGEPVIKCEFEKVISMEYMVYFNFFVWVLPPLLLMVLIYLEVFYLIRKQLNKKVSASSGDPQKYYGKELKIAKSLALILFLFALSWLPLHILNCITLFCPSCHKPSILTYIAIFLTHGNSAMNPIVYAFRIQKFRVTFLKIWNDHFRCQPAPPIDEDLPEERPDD
A compilation of Ki values for Adenosine receptor A1 (Homo sapiens) from the published literature.
MEASURED ATTRIBUTE: Ki (nM)

CCCn1c(=O)c2[nH]c(-c3cnn(CC4CCN(c5ccc(OC(F)(F)F)cc5)C4=O)c3)nc2n(CCC)c1=O (centres undefined); 340
CCCn1c(=O)c2nc(-c3cnn(CCCc4ccccc4)c3)[nH]c2n(CCC)c1=O; 77
CCC(C)n1c(Br)nc2c(N)ncnc21 (centres undefined); 3100

---

System: Adenosine receptor A1 (Homo sapiens, UniProt P30542) | Read-out: Ki | Origin: multiple publications
- STUDY SYSTEM: Adenosine receptor A1 (Homo sapiens, UniProt P30542)
- Sequence (P30542 whole entry): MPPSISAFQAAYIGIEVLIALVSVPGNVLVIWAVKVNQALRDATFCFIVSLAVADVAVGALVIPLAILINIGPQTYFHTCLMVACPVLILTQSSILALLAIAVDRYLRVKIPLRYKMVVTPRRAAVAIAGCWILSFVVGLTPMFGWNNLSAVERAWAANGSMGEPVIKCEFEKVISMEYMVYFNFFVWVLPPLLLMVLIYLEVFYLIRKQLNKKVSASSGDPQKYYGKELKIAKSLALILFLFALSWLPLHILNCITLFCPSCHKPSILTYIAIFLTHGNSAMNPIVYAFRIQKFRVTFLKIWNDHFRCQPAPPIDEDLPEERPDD
MEASURED ATTRIBUTE: Ki

CCOC(=O)c1nc(N(C(=O)c2ccccc2)C(=O)c2ccccc2)nc2nn(C)cc12; > 100000 nM
Cn1cc2c(nc(N=C(Nc3ccccc3)Nc3ccccc3)n3nc(-c4ccco4)nc23)n1; > 1000 nM
Cc1ccc(NC(=Nc2nc3nn(C)cc3c3nc(-c4ccco4)nn23)Nc2ccc(C)cc2)cc1; > 1000 nM
CCCn1c(=O)c2c(nc3[nH]c(C)c(C)n32)n(Cc2ccccc2)c1=O; > 1000 nM
